# System: Plasmodium falciparum
# Assay: Antimalarial activity against Plasmodium falciparum W2 assessed as parasite growth inhibition
# Assay type: functional, organism-based
pIC50: −log10 of the molar value.
Parameter measured: pIC50

1) Cc1c(Oc2cnc(C(=O)N3CC(C)(O)C3)cn2)ccc2c1B(O)OC2 | 4.48

* * *

# Assay: Inhibition of Escherichia coli LeuRS using Escherichia coli tRNA as substrate incubated for 20 mins in presence of 14C-leucine/ATP
pIC50: −log10 of the molar value.
Item-by-item account of pIC50
Parameter measured: pIC50

1) Cl.NC[C@H]1OB(O)c2c(OCCCO)cccc21 | 6.51
2) Cl.NC[C@H]1OB(O)c2c1ccc1c2OCO1 | 6.42

* * *

# Assay: Cytotoxicity against HEK293T cells assessed as reduction in cell viability incubated for 48 hrs by MTT assay
# Assay type: toxicity, cell-based, HEK-293T
# Measurement conditions: human
Parameter measured: CC50 at 48 h

1) OB1c2sccc2C=NN1Cc1ccccc1 | > 100 µM

* * *

# Target of assay: Carbonic anhydrase 1 (Homo sapiens, UniProt P00915)
# Sequence (P00915 whole entry): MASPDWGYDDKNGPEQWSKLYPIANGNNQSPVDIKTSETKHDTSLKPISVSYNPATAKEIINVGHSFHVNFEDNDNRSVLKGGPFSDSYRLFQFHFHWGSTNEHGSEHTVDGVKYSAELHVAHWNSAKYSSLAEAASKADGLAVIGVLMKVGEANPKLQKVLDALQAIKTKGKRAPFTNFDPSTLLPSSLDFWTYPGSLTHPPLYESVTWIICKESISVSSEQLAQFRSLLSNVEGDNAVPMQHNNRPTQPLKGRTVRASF
# Assay: Binding affinity to human CA-I assessed as inhibition constant preincubated for 15 mins by bromothymol blue staining based assay
Parameter measured: Ki (µM)

1) O=[N+]([O-])c1ccc(NC(=S)Nc2ccc3c(c2)B(O)OC3)cc1 | 6.35

* * *

# Assay: Bioavailability in Sprague-Dawley rat […] measured upto 7 hrs by LC/MS analysis
# Assay type: ADME, organism-based
# Measurement conditions: in vivo
Parameter measured: bioavailability (%)

1) O=C(Cc1ccc(B2C=CC=CN2)cc1)Nc1cc(C2CC2)[nH]n1 | 29.3

* * *

# Assay: AUC (0 to 24 hrs) in rat at 25 mg/kg, po
# Assay type: ADME, organism-based
# Set-up: time < 24 hr, dose 25 mg/kg, route po
# Measurement conditions: in vivo
Parameter measured: AUC(0-t) at 24 h

1. CC1(C)OB(O)c2cc(NC(=O)c3ccc(F)cc3C(F)(F)F)ccc21 | > 100000 ng·h/mL

* * *

# Assay: Cmax in rat at 25 mg/kg, po
# Assay type: ADME, organism-based
# Parameters: dose 25 mg/kg, route po
# Measurement conditions: in vivo
Parameter measured: Cmax

1. CC1(C)OB(O)c2cc(NC(=O)c3ccc(F)cc3C(F)(F)F)ccc21 [ACOZIBOROLE] | > 10000 ng/mL

* * *

# Tested on: Mycobacterium tuberculosis
# Assay: Antibacterial activity against Mycobacterium tuberculosis H37Rv ATCC 25618 assessed as bacterial growth inhibition incubated for 5 days by fluorescence based assay
# Format: functional, organism-based
# Measurement conditions: H37Rv ATCC 25618, 120 h
pIC50: −log10 of the molar value.
Parameter measured: pIC50

1. CCS(=O)(=O)N1N=Cc2ccc(Oc3ccc(C(F)(F)F)cc3/C=N/O)cc2B1O | 7.05
2. CS(=O)(=O)N1N=Cc2ccc(Oc3ccc(C(F)(F)F)cc3/C=N/O)cc2B1O | 6.96

* * *

# Assay: Inhibition of beta-lactamase OXA-24 (unknown origin) using nitrocefin as substrate preincubated for 5 mins followed by substrate addition measured after 1 to 5 mins in presence of KHCO3 by colorimetry
# Set-up: species or system Bacteria
pIC50: −log10 of the molar value.
Parameter measured: pIC50

1) Cc1c(Oc2nc(N)ns2)cc2c(c1C)[C@@H](CC(=O)O)OB2O | 7.06

* * *

# Target of assay: UniProtKB Q07343
# Assay: Displacement of […] from full-length recombinant human PDE4B1 by fluorescence polarisation assay
pIC50: −log10 of the molar value.
Parameter measured: pIC50

1) CC(C)OCCOc1ncc(Oc2ccc3c(c2)B(O)OC3)cc1C#N | 8.68

* * *

# Assay: Inhibition of beta-lactamase CTX-M-15 (unknown origin) using nitrocefin as substrate preincubated for 5 mins followed by substrate addition measured after 1 to 5 mins by colorimetry
# Design: species or system Bacteria
Parameter measured: IC50

1) Cc1c(Oc2nc(N)ns2)cc2c(c1C)[C@@H](CC(=O)O)OB2O | < 5 nM

* * *

# Assay: AUC in Sprague-Dawley rat at 1 mg/kg, po measured upto 7 hrs by LC/MS analysis
# Assay type: ADME, organism-based
# Parameters: dose 1 mg/kg, time < 7 hrs, route po
# Measurement conditions: in vivo
Parameter measured: AUC at 7 h (µM·h)

1. O=C(Cc1ccc(B2C=CC=CN2)cc1)Nc1cc(C2CC2)[nH]n1 | 0.613

* * *

# Assay: Half life in Sprague-Dawley rat at 1 mg/kg, po or 1 mg/kg, iv measured upto 7 hrs by LC/MS analysis
# Type: ADME, organism-based
# Measurement conditions: in vivo
Parameter measured: half-life (h)

1) O=C(Cc1ccc(B2C=CC=CN2)cc1)Nc1cc(C2CC2)[nH]n1 | 11.6

* * *

# Test system: Hepatitis C virus
# Assay: Antiviral activity against HCV GT1a316Y assessed as reduction in viral replication
# Assay type: functional, organism-based, Hepacivirus hominis
pEC50: −log10 of the molar value.
Parameter measured: pEC50

1. CNC(=O)c1c(-c2ccc(F)cc2)oc2cc(N(c3cc(Cl)c4c(c3)COB4O)S(C)(=O)=O)c(C3CC3)cc12 | 7.49

* * *

# Assay: Tmax in Sprague-Dawley rat at 1 mg/kg, po or 1 mg/kg, iv measured upto 7 hrs by LC/MS analysis
# Format: ADME, organism-based
# Measurement conditions: in vivo
Parameter measured: Tmax (h)

1) O=C(Cc1ccc(B2C=CC=CN2)cc1)Nc1cc(C2CC2)[nH]n1 | 1.5

* * *

# Assay: Binding affinity to Cryptococcus neoformans beta-carbonic anhydrase assessed as inhibition constant preincubated for 15 mins by bromothymol blue staining based assay
pKi: −log10 of the molar value.
In this section, each of the compounds is paired with its reported pKi.
Parameter measured: pKi

1) O=[N+]([O-])c1ccc(NC(=S)Nc2ccc3c(c2)B(O)OC3)cc1 | 7.06
2) O=C(Nc1ccc(F)cc1)Nc1ccc2c(c1)B(O)OC2 | 7.11

* * *

# Target of assay: 3',5'-cyclic-AMP phosphodiesterase 4B (Homo sapiens, UniProt Q07343)
# Sequence (Q07343 whole entry, the tested form may be a part): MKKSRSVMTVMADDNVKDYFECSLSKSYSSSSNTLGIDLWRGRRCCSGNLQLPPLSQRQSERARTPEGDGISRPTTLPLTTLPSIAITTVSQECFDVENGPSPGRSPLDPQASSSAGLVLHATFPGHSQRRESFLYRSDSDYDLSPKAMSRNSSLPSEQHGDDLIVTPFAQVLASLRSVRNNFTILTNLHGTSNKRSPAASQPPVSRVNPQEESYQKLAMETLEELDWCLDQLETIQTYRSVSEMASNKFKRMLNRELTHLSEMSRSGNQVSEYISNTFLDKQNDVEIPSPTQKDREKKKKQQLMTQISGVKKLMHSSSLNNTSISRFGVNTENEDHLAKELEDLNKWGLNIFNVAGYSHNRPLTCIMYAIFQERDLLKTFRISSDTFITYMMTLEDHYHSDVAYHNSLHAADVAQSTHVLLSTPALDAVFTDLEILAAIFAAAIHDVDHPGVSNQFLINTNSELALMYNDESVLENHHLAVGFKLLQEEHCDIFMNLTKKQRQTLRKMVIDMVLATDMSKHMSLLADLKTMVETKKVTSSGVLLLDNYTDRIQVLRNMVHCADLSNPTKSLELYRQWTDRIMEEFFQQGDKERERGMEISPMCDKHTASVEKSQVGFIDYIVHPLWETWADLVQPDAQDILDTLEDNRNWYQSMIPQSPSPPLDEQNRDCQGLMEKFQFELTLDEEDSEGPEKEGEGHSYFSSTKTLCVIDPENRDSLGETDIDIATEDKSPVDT
# Assay: Displacement of […] from full-length recombinant human PDE4B2 catalytic domain by fluorescence polarisation assay
Parameter measured: IC50 (nM)

1. CC(C)OCCOc1ncc(Oc2ccc3c(c2)B(O)OC3)cc1C#N | 2.1

* * *

# Test system: Mycobacterium tuberculosis
# Assay: Antibacterial activity against Mycobacterium tuberculosis H37Rv ATCC 25618 infected in human THP-1 cells assessed as bacterial growth inhibition at MOI of 1 incubated for 3 days by Cell Titer Glo assay
# Format: functional, organism-based
# Measurement conditions: H37Rv ATCC 25618, THP-1, 72 h
pIC50: −log10 of the molar value.
Parameter measured: pIC50

1) Cc1c(OCc2ccccc2)ccc2c1B(O)OC2 | 5.44

* * *

# Tested on: THP-1
# Assay: Antiinflammatory activity against human THP-1 cells assessed as inhibition of LPS-stimulated IL-1beta release measured after 1 hr by ELISA
# Type: functional, cell-based
# Measurement conditions: THP-1, 1 h
pIC50: −log10 of the molar value.
Parameter measured: pIC50

1. CC(=O)C1=C(C(Cl)(Cl)Cl)N[B-](c2ccccc2)(c2ccccc2)[O+]=C1C | 6.24

* * *

# logP per entry
# Assay: Lipophilicity, log P of the compound
# Assay type: physicochemical
# Measurement conditions: octanol/water
Parameter measured: logP

1) CN1C(=O)C2(Cc3ccccc3B(O)O2)c2ccccc21 (configuration not stated) | 3.52
2) OCc1ccc2c(c1)C=CB(c1ccc(O)c(C34CC5CC(CC(C5)C3)C4)c1)N2 | 0.12

* * *

# Assay: Half life in human
# Type: ADME
Parameter measured: half-life (h)

1. CNC(=O)c1c(-c2ccc(F)cc2)oc2cc(N(c3cc(Cl)c4c(c3)COB4O)S(C)(=O)=O)c(C3CC3)cc12 | 60

* * *

# Target of assay: UniProt:Q08499
# Sequence (Q08499 whole entry): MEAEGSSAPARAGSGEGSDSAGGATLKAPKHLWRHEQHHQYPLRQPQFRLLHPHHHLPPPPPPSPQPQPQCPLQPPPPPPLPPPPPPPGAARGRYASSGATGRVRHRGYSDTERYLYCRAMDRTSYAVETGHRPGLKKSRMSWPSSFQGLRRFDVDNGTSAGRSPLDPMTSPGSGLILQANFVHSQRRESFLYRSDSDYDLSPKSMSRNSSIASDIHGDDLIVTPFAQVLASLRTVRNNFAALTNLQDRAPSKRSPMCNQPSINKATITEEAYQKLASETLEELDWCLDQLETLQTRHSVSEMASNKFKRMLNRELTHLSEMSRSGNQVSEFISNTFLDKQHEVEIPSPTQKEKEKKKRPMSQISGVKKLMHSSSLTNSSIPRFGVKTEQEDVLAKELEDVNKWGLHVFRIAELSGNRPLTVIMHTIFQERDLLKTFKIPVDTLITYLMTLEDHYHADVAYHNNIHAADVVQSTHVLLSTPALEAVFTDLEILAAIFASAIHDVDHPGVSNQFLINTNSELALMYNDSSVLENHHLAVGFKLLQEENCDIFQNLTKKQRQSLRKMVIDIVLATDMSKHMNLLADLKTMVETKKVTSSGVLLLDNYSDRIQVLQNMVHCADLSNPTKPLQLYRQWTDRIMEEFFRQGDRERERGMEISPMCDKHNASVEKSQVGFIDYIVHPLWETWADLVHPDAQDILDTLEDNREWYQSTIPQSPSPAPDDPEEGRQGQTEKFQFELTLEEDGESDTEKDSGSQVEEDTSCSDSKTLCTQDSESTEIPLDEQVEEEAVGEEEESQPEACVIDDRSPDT
# Assay: Displacement of […] from full-length recombinant human PDE4D7 by fluorescence polarisation assay
Parameter measured: IC50 (nM)

1. CC(C)OCCOc1ncc(Oc2ccc3c(c2)B(O)OC3)cc1C#N | 2.1

* * *

# Assay: Inhibition of beta-lactamase KPC-2 (unknown origin) using nitrocefin as substrate preincubated for 5 mins followed by substrate addition measured after 1 to 5 mins by colorimetry
# Set-up: species or system Bacteria
Parameter measured: IC50

1. Cc1c(Oc2nc(N)ns2)cc2c(c1C)[C@@H](CC(=O)O)OB2O | 26 nM
